Documented GI50 across a set of compounds
- Tested on: SK-MEL-28
- protocol: NCI tumour cell line growth inhibition, 48 h
The source made the active and inactive calls. Cut-off read from the data, not from the text of the source: active = GI50 up to about 1.1 µM and inactive = higher.

{"columns": ["smilesStr", "GI50"],
 "data": [
  ["Sc1nnc(CNc2ccc(-c3nnc(S)n3-c3ccc(Cl)cc3)cc2)n1-c1ccc(Cl)cc1", "25.8 µM (inactive)"],
  ["CCOC(=O)C[C@@]12CCCN[C@]1(C)CCc1ccccc12", "> 100 µM (inactive)"],
  ["O=C1c2ccccc2S[C@@H](O)[C@@H]2CCCN12", "> 100 µM (inactive)"]
]}

====

- Tested on: SK-OV-3
- protocol: NCI tumour cell line growth inhibition, 48 h
The source made the active and inactive calls. Cut-off read from the data, not from the text of the source: active = GI50 up to about 1.1 µM and inactive = higher. Where a SMILES comes first, the peptide text is derived from it. The star is where a group is joined. Cbz = O=C(OCc1ccccc1)*
Classes used: active, inactive

{"columns": ["molecule", "label"],
 "data": [
  ["O=C1Cc2c(-c3ccccc3)cc(-c3ccccc3)nc2-c2ccccc2N1", "inactive"],
  ["N#Cc1nc(CCC(C(=O)O)N2C(=O)c3ccccc3C2=O)oc1N (stereo not given)", "inactive"],
  ["COc1ccc(C2=NN(C(=N)S)C(c3ccccc3)C2)cc1 (stereo not given)", "inactive"],
  ["C=C(c1ccccc1)C1ON(C)CCc2cc(OC)c(OC)cc21 (stereo not given)", "inactive"],
  ["O=C(CCCc1cccc2[nH]c3c(c12)CN(Cc1ccccc1)CC3)c1ccc(F)cc1", "inactive"],
  ["CC(=O)c1cccc(NC(=O)C(=O)C(C(=O)NN)c2ccccc2)c1 (stereo not given)", "inactive"],
  ["O=c1[nH]c(=O)c2c3n(cc2[nH]1)CCCCC3", "inactive"],
  ["COC1=CC(=O)C(Br)=CC1=O", "inactive"],
  ["CCCCCCOC(=O)/C=C/[C@]1(CO)C/C(=C/CC(C(C)C)C(C)C)C(=O)O1", "inactive"],
  ["CCOC(=O)CCC(NC(=O)C(Cc1ccccc1)NC(=O)OCc1ccccc1)C(=O)OCC (stereo not drawn) (Cbz-Phe-Glu(OEt)-OEt; configuration not given here)", "inactive"],
  ["O=C1C(=O)N(c2nccs2)C(=O)C(=O)C1c1nc2ccccc2s1", "inactive"],
  ["COC(=O)c1cc(-c2ccc3ccccc3c2)nc(O)c1C#N", "inactive"],
  ["Cc1cc2ccccc2n2c1nc1ccccc12", "inactive"],
  ["CCOC(=O)C(NC(=O)c1ccccc1)(Nc1ccc(S(=O)(=O)Nc2ccc(OC)nn2)cc1)C(F)(F)F (stereo not given)", "inactive"],
  ["O=C1CCCCN1", "inactive"],
  ["COc1cc(/C=C2\\S/C(=N/Nc3nc(-c4ccc(Br)cc4)cs3)NC2=O)cc(OC)c1OC", "inactive"],
  ["CCOC(=O)C[C@@]12CCCN[C@]1(C)CCc1ccccc12", "inactive"],
  ["CC(C)(C)[Si](C)(C)OC[C@H](/C=C\\CCCC(=O)O)NC1(c2ccccc2)c2ccccc2-c2ccccc21", "inactive"],
  ["O=C(O)CCO/N=C1/C(=C2/C(=O)Nc3ccccc32)Nc2ccccc21", "inactive"],
  ["CC#CC(O)(C(=O)OCCCN(C)C)C1CCCCC1 (stereo not given)", "inactive"],
  ["COc1ccc(C2C=C(c3ccc4c(c3)OCO4)Oc3c2c(=O)oc2ccccc32)cc1OC (stereo not given)", "active"],
  ["CN(C)c1ccc(C(C#N)N2CCCN(C(C#N)c3ccc(N(C)C)cc3)C2c2ccc(N(C)C)cc2)cc1 (stereo not given)", "inactive"],
  ["N#CC(C#N)=C(C(C#N)C#N)C(C#N)C#N", "inactive"],
  ["Oc1ccc(O)c(-n2cccn2)c1-n1cccn1", "inactive"],
  ["O=c1[nH]nc(N/N=C\\c2ccc(Cl)cc2)c2ccccc12", "inactive"]
]}
